molecular target: CysLT1R (Homo sapiens, UniProt Q9Y271); construct: Eurofins Cerep-Panlabs (France); assay: CysLT1R antagonistic activity assay (Ca2+ fluorescence, 0.1 nM LTD4; Eurofins Cerep-Panlabs); format: cell-based; settings: compound at 10 microM; MK571 = 100%; 0.1 nM LTD4; read-out: CysLTR1 (% of inhibition compared to the compound MK571)
Sequence (Q9Y271 whole entry): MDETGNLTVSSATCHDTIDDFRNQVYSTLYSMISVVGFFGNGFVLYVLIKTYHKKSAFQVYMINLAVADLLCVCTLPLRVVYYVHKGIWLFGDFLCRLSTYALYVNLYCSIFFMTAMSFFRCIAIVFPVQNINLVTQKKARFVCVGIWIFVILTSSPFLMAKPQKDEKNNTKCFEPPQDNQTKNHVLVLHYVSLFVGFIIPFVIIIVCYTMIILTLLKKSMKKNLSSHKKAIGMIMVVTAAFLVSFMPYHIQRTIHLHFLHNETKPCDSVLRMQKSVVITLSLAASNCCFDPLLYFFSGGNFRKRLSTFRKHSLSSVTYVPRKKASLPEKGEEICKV
Metric: inhibition at 10 µM
Include the unit after the number when you answer.

Sample records with inhibition at 10 µM:
O=C(O)c1cccc(-c2ccc(OCc3ccc4ccccc4n3)cc2)c1 [CHIN117]    109%
O=C(O)c1ccc(-c2ccc(OCc3ccc4ccccc4n3)cc2)cc1 [CHIN120]    43%
CCC(C)COc1cccc(OCc2ccc3ccccc3n2)c1 (centres unmarked) [CHIN114]    15%
COC(=O)c1cccc(-c2ccc(OCc3ccc4ccccc4n3)cc2)c1 [CHIN116]    21%
CC(C)Oc1cccc(OCc2ccc3ccccc3n2)c1 [CHIN111, 2-((3-isopropoxyphenoxy)methyl)quinoline]    79%
OCc1cc(O)cc(OCc2ccc3ccccc3n2)c1 [CHIN109]    26%
COC(=O)c1cc(O)cc(OCc2ccc3ccccc3n2)c1 [CHIN107]    59%

Query molecule follows.
Exam item: Entry under review: COC(=O)c1ccc(-c2ccc(OCc3ccc4ccccc4n3)cc2)cc1 [CHIN119] . Reported inhibition at 10 µM?
Marked response: 13%
